Where do these numbers come from? They come from patent US5780265.

- Assayed System: Human Factor XIa (human, UniProt P03951)
- Experiment: enzyme inhibition of FXIa, chromogenic substrate, fit to the tight-binding equation (apparent Ki*)
Reported pKi values for a set of binders
# log scale: pKi equals minus log10 of the concentration in mol/L

[[record]]
binder = "KALI-13 (designed binder) VREVCSEQAESGHCRAAIPRWYFDVTEGKCAPFFYGGCGGNRNNFDTEEYCAAVCGSA"
quantity_kind = "pKi"
result_number = 8.85


// fetch pKi given entry KALI-46 (designed binder) VREVCSEQAEEGRCRASILRWYFDVTEGKCAPFFYGGCGGNRNNFDTEEYCAAVCGSA
9.52

// fetch pKi given entry KALI-48 (designed binder) VREVCSEQAETGHCRAAIPRWYFDVTEGKCAPFFYGGCGGNRNNFDTEEYCAAVCGSA
9.15

// fetch pKi given entry KALI-30 (designed binder) VREVCSEQAEEGHCRAAILRWYFDVTEGKCAPFFYGGCGGNRNNFDTEEYCAAVCGSA
9.40

// fetch pKi given entry KALI-8 (designed binder) VREVCSEQAELGHCRAAIPRWYFDVTEGKCAPFFYGGCGGNRNNFDTEEYCAAVCGSA
9.52
